- Test Method Notes: chemical genetic growth profiling, strain panel (AID 1159580);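 further: tested at 20 µM; growth read once vehicle control cultures reached saturation at 30 °C; 1 = growth at the plate median or of vehicle wells; lower values mean less growth of the strain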
- Measurement Setup: S. cerevisiae deletion strains, growth OD, locus YNL153C, strain GIM3, hits give low values
About 2,000 (36%) of roughly 5,500 compounds were called active. Another 18% or so got no clear call; they are omitted. The list shows a part of the results.
Readout: normalized growth
Answers are plain numbers.

In the examples that follow, each entry is paired with its recorded normalized growth.
| Compound | normalized growth |
| --- | --- |
| Cn1ncc(C(=O)O/N=C(/N)c2cc(C(F)(F)F)cc(C(F)(F)F)c2)c1-n1cccc1 | 0.996 |
| NC(=O)c1ccccc1 | 1.01 |
| O=C(O)c1cccnc1 | 1.03 |
| O=C1c2ccccc2-c2n[nH]c3cccc1c23 | 0.345 |
| C[C@H](CCC(=O)O)[C@H]1CCC2C3C(=O)CC4CC(=O)CC[C@]4(C)C3CC(=O)[C@@]21C (stereo partly specified) | 0.996 |
| C(=C(c1ccccc1)c1ccccc1)N1CCC1 | 0.988 |
| CC[N+](C)(C)c1cccc(O)c1 | 0.982 |
| CC(CCC(=O)O)[C@H]1CCC2C3CC[C@@H]4CC(=O)CC[C@]4(C)C3C=C[C@@]21C (stereo partly specified) | 0.966 |
| O=C1c2ccccc2C(=O)N1CN(CCSc1ccccc1)CN1C(=O)c2ccccc2C1=O | 1.01 |
| C#CCN[C@H](C)Cc1ccccc1 | 1 |

Fill in normalized growth for each of the 4 compounds listed.
1. COC(OC)c1cc(=O)[nH]c(=S)[nH]1
2. CNCCCC12CCC(c3ccccc31)c1ccccc12
3. FC(F)(F)c1cc(-c2noc(C3CCc4ccccc4O3)n2)cc(C(F)(F)F)c1 (stereo unspecified)
4. NCC(O)(CS(=O)(=O)O)c1ccc(Cl)cc1 (stereo unspecified)

# output
[1.01, 1, 0.998, 1]

----------
- Test Method Notes: chemical genetic growth profiling, strain panel (AID 1159580)
- Measurement Setup: S. cerevisiae deletion strains, growth OD, locus YBL061C, strain skt5, hits give low values
Hit rate of the full screen: of about 5,500 compounds, about 2,000 (36%) were called active. Roughly 18% stayed inconclusive and do not appear here. This is one part of the list.
Readout: normalized growth

In the examples that follow, each entry is paired with its recorded normalized growth.
| Molecule | normalized growth |
| --- | --- |
| COC1CC2CCC(C)C(O)(O2)C(=O)C(=O)N2CCCCC2C(=O)OC(C(C)CC2CCC(O)C(OC)C2)CC(=O)C(C)/C=C(\C)C(O)C(OC)C(=O)C(C)CC(C)/C=C/C=C/C=C/1C (stereo unspecified) | 0.0636 (active) |
| COc1ccc(C2Sc3ccccc3N(CCN(C)C)C(=O)C2OC(C)=O)cc1 (stereo unspecified) | 0.987 (inactive) |
| CN(C)CCCN1c2ccccc2Sc2ccccc21 | 1 (inactive) |

Fill in normalized growth for each of the 5 molecules listed.
1. CC1=CCCC2C1(C)CCC(C)C2(C)CC/C(C)=C/C[n+]1cn(C)c2c(N)ncnc21 (stereo unspecified)
2. CC(C)c1ccc2c(c1)CCC1C(C)(C(N)=O)CCCC21C (stereo unspecified)
3. CN(C)CCCN1c2ccccc2CCc2ccccc21
4. CC(Cc1cccc(C(F)(F)F)c1)NCCOC(=O)c1ccccc1 (stereo unspecified)
5. C/C=C\C1=C(C(=O)O)N2C(=O)C(NC(=O)C(N)c3ccc(O)cc3)C2SC1 (stereo unspecified)

# output
["1.01 (inactive)", "0.951 (inactive)", "1 (inactive)", "0.968 (inactive)", "1.02 (inactive)"]

Fill in normalized growth for each of the 3 molecules listed.
1. CN(C)C(=O)Oc1cccc([N+](C)(C)C)c1
2. CC1=CC(=O)c2ccccc2C1=O
3. O=C(O)C1=CCCNC1

# output
1: 1.01 (inactive); 2: 1.03 (inactive); 3: 0.993 (inactive)

----------
- Test Method Notes: chemical genetic growth profiling, strain panel (AID 1159580)
- Measurement Setup: S. cerevisiae deletion strains, growth OD, locus YKL067W, strain YNK1
Among all 5,500 compounds or so, about 2,000 (36%) were called active. About 18% were inconclusive and are not listed. Rule as the data show it: active = normalized growth mostly below about 0.91 (no sharp cut-off); inconclusive = no clear call, values can overlap the other calls; inactive = mostly above about 0.92. The list shows a part of the results.
# output must be one of true (active), false (inactive)

Consider the worked cases shown below.
| Compound | Assigned Category |
| --- | --- |
| CC(C)(C)c1cc(C(=O)Nc2ccc3c(c2)OCO3)n(Cc2ccc(F)cc2)n1 | false |
| CCOC(=O)/C(C#N)=C(\Nc1ccc(C(=O)OCC)cc1)SC | false |
| Cc1c(C)c(C)c(C(=O)c2ccc(N=Cc3cc(Cl)cc(Cl)c3O)cc2)c(C)c1C | true |
| O=C(CSC1=NNC(c2ccccn2)S1)Nc1ccccc1 (centres undefined) | false |
| Cc1ccc(-c2csc(-c3ccncc3)n2)cc1 | false |
| CSc1sc(C(=O)Sc2ccccc2)cc1S(=O)(=O)C(C)C | false |
| OC(COc1ccc(F)cc1)(c1ccc(Cl)cc1)c1ccc(Cl)cc1 | false |
| O=C1c2cccc3c(Sc4ccccc4)ccc(c23)C(=O)N1NCCO | false |
| O=S(=O)(Oc1ccc(-c2csnn2)cc1)c1ccccc1Cl | false |
| CCOC(=O)c1ccc(Cl)c(N=Cc2cc(Cl)cc(Cl)c2O)c1 | true |

# input Outcome? "Cc1onc(-c2c(Cl)cccc2Cl)c1C(=O)O/N=C(/N)Cc1ccc(C(C)(C)C)cc1"
# output false

# input Outcome? "O=C(Nc1cccc(Cl)c1)O/N=C1\CCCc2occc21"
# output false

# input Outcome? O=[N+]([O-])c1cccc(C2CC(c3ccccc3)=Nc3ccccc3S2)c1 (centres undefined)
# output false

----------
- Test Method Notes: chemical genetic growth profiling, strain panel (AID 1159580);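 further: tested at 20 µM; growth read once vehicle control cultures reached saturation at 30 °C; 1 = growth at the plate median or of vehicle wells; lower values mean less growth of the strain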
- Measurement Setup: S. cerevisiae deletion strains, growth OD, locus YOR136W, strain idh2, hits give low values
In all, about 5,500 compounds went through this assay and about 2,000 (36%) were called active. About 18% were inconclusive and are not listed. The list shows a part of the results.
Readout: normalized growth
Numbers only.

In the examples that follow, each entry is paired with its recorded normalized growth.
| Molecule | Readout | Numeric Result |
| --- | --- | --- |
| C=C1c2c(Cl)ccc(O)c2C(O)=C2C(=O)[C@]3(O)C(O)=C(C(N)=O)C(=O)[C@@H](N(C)C)[C@@H]3[C@@H](O)[C@H]12 | normalized growth | 0.997 |
| Oc1cccc(O)c1 | normalized growth | 0.988 |
| CC(C)(C)NCC(O)c1ccc(O)c(CO)c1 (centres undefined) | normalized growth | 1.02 |
| CN(C)[C@@H]1C(=O)C(C(N)=O)=C(O)[C@@]2(O)C(=O)C3=C(O)c4c(O)cccc4[C@@](C)(O)[C@H]3[C@H](O)[C@@H]12 | normalized growth | 1.01 |
| NCC(N)C(=O)c1ccccc1 (centres undefined) | normalized growth | 1.01 |

Fill in normalized growth for each of the 4 molecules listed.
1. COC(=O)/C(=C1\OC(=O)C(c2ccccc2)=C1O)c1ccccc1
2. CC(CCc1ccccc1)NCC(O)c1ccc(O)c(C(N)=O)c1 (centres undefined)
3. O=C(OCc1ccccc1)c1ccccc1
4. CC(C)CC1NC(=O)CNC1=O (centres undefined)

# output
1. 1
2. 1
3. 0.987
4. 1.01

----------
- Test Method Notes: chemical genetic growth profiling, strain panel (AID 1159580);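 further: tested at 20 µM; growth read once vehicle control cultures reached saturation at 30 °C; 1 = growth at the plate median or of vehicle wells; lower values mean less growth of the strain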
- Measurement Setup: S. cerevisiae deletion strains, growth OD, locus YLL041C, strain sdh2, hits give low values
About 2,000 (36%) of roughly 5,500 compounds were called active. Inconclusive results (about 18%) are left out. The list shows a part of the results.
Cut-off 1 on normalized growth: below means yes, at or above means no.

| Compound | Assigned Category |
| --- | --- |
| CC(=O)Oc1ccc(C(c2ccc(OC(C)=O)cc2)c2ccccn2)cc1 | no |

Let's switch to this compound now.
# input Just wondering, is normalized growth of COC1CC2CCC(C)C(O)(O2)C(=O)C(=O)N2CCCCC2C(=O)OC(C(C)CC2CCC(O)C(OC)C2)CC(=O)C(C)/C=C(\C)C(O)C(OC)C(=O)C(C)CC(C)/C=C/C=C/C=C/1C (stereo not given) below 1?
# output yes

----------
- Test Method Notes: chemical genetic growth profiling, strain panel (AID 1159580);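 further: tested at 20 µM; growth read once vehicle control cultures reached saturation at 30 °C; 1 = growth at the plate median or of vehicle wells; lower values mean less growth of the strain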
- Measurement Setup: S. cerevisiae deletion strains, growth OD, locus YJL092W, strain hpr5, hits give low values
Hit rate of the full screen: of about 5,500 compounds, about 2,000 (36%) were called active. Inconclusive results (about 18%) are left out. Some of the results follow.
Cut-off 1 on normalized growth: below means 1, at or above means -1.

| Compound | Assigned Category |
| --- | --- |
| O=C(O)c1ccccc1 | 1 |
| O=C(OCc1ccccc1)c1ccccc1 | 1 |
| NCC(N)C(=O)c1ccccc1 (centres undefined) | -1 |

Let's switch to this compound now.
# input Just wondering, is normalized growth of "O=C(CC(=O)c1ccccc1)c1ccccc1" below 1?
# output 1

Data credit: PubChem BioAssay AID1159580
